molecular target: Lysine-specific demethylase 4E (Homo sapiens) (UniProt B2RXH2); experiment: qHTS Assay for Inhibitors of Human Jumonji Domain Containing 2E (JMJD2E); details: JMJD2E catalytic domain, FDH-coupled NADH fluorescence; series mostly up to 57.1 µM; note: nearly all actives have a fitted effect of over 50% in size
Sequence (B2RXH2 1-337 limits assumed): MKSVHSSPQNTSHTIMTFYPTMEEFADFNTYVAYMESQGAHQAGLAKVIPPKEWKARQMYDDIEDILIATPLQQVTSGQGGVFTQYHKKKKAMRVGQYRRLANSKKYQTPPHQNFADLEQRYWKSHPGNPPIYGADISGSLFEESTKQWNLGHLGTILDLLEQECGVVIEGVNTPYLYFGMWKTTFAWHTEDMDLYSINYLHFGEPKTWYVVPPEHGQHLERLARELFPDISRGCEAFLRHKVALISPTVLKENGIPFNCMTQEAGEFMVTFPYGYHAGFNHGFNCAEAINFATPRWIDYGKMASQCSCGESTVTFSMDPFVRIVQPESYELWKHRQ
In all, about 230,000 compounds went through this assay and about 3,600 (1.6%) were called active. Another 15% or so got no clear call; they are omitted. Calls come from the whole dose curve; as a rule, active = well fitted inhibition curve with a large enough effect (not every such curve was filed as active); inconclusive = small, poorly fitted or top-dose-only effect, or another doubt; inactive = no such curve, though single readings can be large or run the other way. The full list was thinned out, with actives kept by preference.
Just give me one of these, please: label 1 = active, label 0 = inactive

Task: Field: outcome | Entry: "Oc1ccc(N=Cc2sc3ccccc3c2Cl)cc1"
Output: label 1

Task: Field: outcome | Entry: CC(C)(C)NCC(O)COc1cccc2[nH]c(=O)[nH]c12 (stereo not given)
Output: label 0

Task: Field: outcome | Entry: "Cc1nc(N)sc1N=Nc1c(C)n(C)n(-c2ccccc2)c1=O"
Output: label 0

Task: Field: outcome | Entry: "Cc1ccc(C(=O)NCC(=O)OCC(=O)Nc2cccc(S(=O)(=O)N3CCCC3)c2)cc1C"
Output: label 0

Task: Field: outcome | Entry: Cc1nnc(SC(C(=O)c2ccccc2)c2ccccc2)[nH]c1=O (stereo not given)
Output: label 0

Task: Field: outcome | Entry: "O=c1ccnc(Nc2ccc(Cl)cc2)[nH]1"
Output: label 0

Task: Field: outcome | Entry: "CC(C)NC[C@H](O)c1ccc2ccccc2c1"
Output: label 0

Task: Field: outcome | Entry: "O=C(NNS(=O)(=O)c1ccccc1)c1cnn(-c2ccc(Cl)cc2)c1C(F)(F)F"
Output: label 0

Task: Field: outcome | Entry: "CCC(=O)/C=C1\Sc2ccccc2N1CC"
Output: label 0

Task: Field: outcome | Entry: "CC1=NCCN1S(=O)(=O)c1cccc([N+](=O)[O-])c1"
Output: label 0

Task: Field: outcome | Entry: "COc1ccc(N2CCN(Cc3ccc(Br)s3)CC2)cc1"
Output: label 1

Task: Field: outcome | Entry: "CC(C)(C)NC(=O)NCc1ccco1"
Output: label 0

Task: Field: outcome | Entry: "CS(=O)(=O)c1sc(C(=O)NC(=S)Nc2ccc(OC(F)(F)F)cc2)c2c1C=CCC2"
Output: label 0

Task: Field: outcome | Entry: "CCOC(=O)C1CCN(CCC(=O)Nc2cccc(C)c2)CC1"
Output: label 0

Task: Field: outcome | Entry: "CSc1n[nH]c(=S)n1N"
Output: label 1

Task: Field: outcome | Entry: "COC(=O)c1c(C)oc(C)c1S(=O)(=O)NCc1ccc(Cl)cc1"
Output: label 0

Task: Field: outcome | Entry: "O=C(Nc1ccc(F)cc1)c1cc2c(s1)CCCC2"
Output: label 0

Task: Field: outcome | Entry: CCC(C)c1ccc(O)c(/C=N/O)c1 (stereo not given)
Output: label 0

Task: Field: outcome | Entry: "Nc1ccc(N=Nc2ccccc2Cl)c(N)n1"
Output: label 0

Task: Field: outcome | Entry: "CCC/C(C)=N\Nc1nc2c(c(=O)n(C)c(=O)n2C)n1C"
Output: label 0

Task: Field: outcome | Entry: "CC#CC[N+](C)(C)CCCCCC"
Output: label 0

Task: Field: outcome | Entry: "COc1ccc(N2CCN(Cc3nnc(-c4ccccc4)o3)CC2)cc1"
Output: label 0

Task: Field: outcome | Entry: "CC(C)(C)C(=O)Nc1c(Br)c(C2CC2)nn1-c1ccccc1"
Output: label 0

Task: Field: outcome | Entry: "COc1ccc(CNC(=O)CCC(=O)Nc2nnc(C(C)C)s2)cc1"
Output: label 0

Task: Field: outcome | Entry: "c1ccc(-c2nnc(N3CCOCC3)c3ccccc23)cc1"
Output: label 0

----------
Target: Lysine-specific demethylase 4E (Homo sapiens); note: nearly all actives have a fitted effect of over 50% in size
Assay: qHTS Assay for Inhibitors of Human Jumonji Domain Containing 2E (JMJD2E)
Settings: JMJD2E catalytic domain, FDH-coupled NADH fluorescence; series mostly up to 57.1 µM
Excerpt: Assay Provider: Structural Genomics Consortium [SGC] Screening Center PI: Austin, C.P. Screening Center: NIH Chemical Genomics Center [NCGC] The fine interplay among methylation states of several lysine residues on the tails of histone proteins is a major determinant of the transcriptional state of the associated DNA coding regions and is commonly referred to as the histone code. […]
Hit rate of the full screen: of about 230,000 compounds, about 3,600 (1.6%) were called active. About 15% were inconclusive and are not listed. What follows is part of a selection rich in actives, with near analogues and random picks from the rest.
Measured endpoint: outcome

>>> result("Cc1ccc(NC(=O)/C(=C\\c2ccccc2)NC(=O)c2ccco2)cc1")
"inactive"
>>> result("COC(=O)c1cc(C(=O)CSc2nc(C)cc(C)n2)ccc1O")
"inactive"
>>> result("Cc1oc(C(N)=O)cc1COc1ccc(C(N)=O)cc1")
"inactive"

----------
target: Lysine-specific demethylase 4E (Homo sapiens); test: qHTS Assay for Inhibitors of Human Jumonji Domain Containing 2E (JMJD2E); details: JMJD2E catalytic domain, FDH-coupled NADH fluorescence; series mostly up to 57.1 µM; note: nearly all actives have a fitted effect of over 50% in size
Screen size: about 230,000 compounds; about 3,600 (1.6%) were called active. Not shown: some 15% with an inconclusive outcome. The call rests on the fitted dose curve; in most records, active means well fitted inhibition curve with a large enough effect (not every such curve was filed as active); inconclusive means small, poorly fitted or top-dose-only effect, or another doubt; inactive means no such curve, though single readings can be large or run the other way. Many of the other results were omitted from the sample, so actives are more common in it than they were.
Just give me one of these, please: 1 for active, 0 for inactive

Task: Field: outcome | Entry: CN(CC(O)COc1ccc(S(=O)(=O)N2CCOCC2)cc1Cl)C1CCCCC1 (stereo not drawn)
Output: 0

Task: Field: outcome | Entry: "Nc1nonc1-n1nnc(C(=O)N/N=C/c2cc(Br)ccc2O)c1CSC1=NCCS1"
Output: 1

Task: Field: outcome | Entry: "O=C(O)CC/C(=N\NC(=O)c1ccc(F)cc1)c1ccc(Br)cc1"
Output: 0

Task: Field: outcome | Entry: "CCn1c2ccccc2c2cc(NC(=O)Nc3ccc([N+](=O)[O-])cc3C)ccc21"
Output: 0

Task: Field: outcome | Entry: "O=C1CCC(=O)N(O)CCCCCNC(=O)CCC(=O)N(O)CCCCCNC(=O)CCC(=O)N(O)CCCCCN1"
Output: 1

Task: Field: outcome | Entry: Cc1ccc(SCc2c(C(=O)N/N=C/C3CC=CCC3)nnn2-c2nonc2N)cc1 (stereo not drawn)
Output: 0

Task: Field: outcome | Entry: "CCOc1cccc(/C=N/N2C(=O)CSC2=S)c1O"
Output: 1

Task: Field: outcome | Entry: "O=C(N/N=C/c1ccc([N+](=O)[O-])o1)c1cccc(S(=O)(=O)N2CCOCC2)c1"
Output: 0

Task: Field: outcome | Entry: "CC(=O)Nc1nc2c(s1)C(=O)NCC(C)(C)C2"
Output: 0

Task: Field: outcome | Entry: "CCOc1cccc(/C=N/NC(=S)NCCN2CCOCC2)c1O"
Output: 1

Task: Field: outcome | Entry: "COc1ccccc1C(=O)CSc1cccc[n+]1[O-]"
Output: 0

Task: Field: outcome | Entry: "Cc1ccc(C(=O)NC(=S)NCCN2CCOCC2)cc1"
Output: 0

Task: Field: outcome | Entry: "CCOc1ccccc1N=C1NC(=O)CS1"
Output: 0

Task: Field: outcome | Entry: "Cc1nnc(N/N=C/c2cccs2)[nH]c1=O"
Output: 0

Task: Field: outcome | Entry: "CC(C)N1CCC(=NNc2ccc([N+](=O)[O-])cc2S(=O)(=O)N2CCOCC2)CC1"
Output: 0

Task: Field: outcome | Entry: "Cc1cccc(-[n+]2c(-c3cccc(Br)c3)[nH]c3nc4ccccc4nc32)c1"
Output: 1

Task: Field: outcome | Entry: CCn1cc(CN2CCCC(CNS(=O)(=O)Cc3ccccc3)C2)cn1 (stereo not drawn)
Output: 0

Task: Field: outcome | Entry: "Cc1ccc(NC(=S)NCCN2CCOCC2)cc1"
Output: 0

----------
Biological target: Lysine-specific demethylase 4E (Homo sapiens); note: nearly all actives have a fitted effect of over 50% in size
Assay: qHTS Assay for Inhibitors of Human Jumonji Domain Containing 2E (JMJD2E)
Conditions: JMJD2E catalytic domain, FDH-coupled NADH fluorescence; series mostly up to 57.1 µM
Text: Assay Provider: Structural Genomics Consortium [SGC] Screening Center PI: Austin, C.P. Screening Center: NIH Chemical Genomics Center [NCGC] The fine interplay among methylation states of several lysine residues on the tails of histone proteins is a major determinant of the transcriptional state of the associated DNA coding regions and is commonly referred to as the histone code. […]
About 3,600 (1.6%) of roughly 230,000 compounds were called active. Not shown: some 15% with an inconclusive outcome. Only a selection was taken, and actives are over-represented in it overall.
Measured endpoint: outcome

>>> result("CN1CCN(C2=NCCO2)CC1")
"inactive"
>>> result("O=C(Nc1ccc(Cl)cc1)Nc1ccc(C(=O)N2CCOCC2)cc1")
"inactive"
>>> result("C=CCN(C(=O)Nc1ccc2c(c1)nc(C)n2C)c1ccccc1")
"inactive"

----------
target: Lysine-specific demethylase 4E (Homo sapiens); experiment: qHTS Assay for Inhibitors of Human Jumonji Domain Containing 2E (JMJD2E); conditions: JMJD2E catalytic domain, FDH-coupled NADH fluorescence (FDH is formaldehyde dehydrogenase); series mostly up to 57.1 µM; note: nearly all actives have a fitted effect of over 50% in size
Screen size: about 230,000 compounds; about 3,600 (1.6%) were called active. About 15% were inconclusive and are not listed. The call rests on the fitted dose curve; in most records, active means well fitted inhibition curve with a large enough effect (not every such curve was filed as active); inconclusive means small, poorly fitted or top-dose-only effect, or another doubt; inactive means no such curve, though single readings can be large or run the other way. Only a selection was taken, and actives are over-represented in it overall.
Just give me one of these, please: T (active), F (inactive)

Task: Field: outcome | Entry: "COc1cccc(/C=N/Nc2cc(C)nc(-c3ccccc3O)n2)c1O"
Output: F

Task: Field: outcome | Entry: "COCCNc1nc(-c2ccccc2)nc2c1oc1ccccc12"
Output: F

Task: Field: outcome | Entry: "CC1(C)CC(=O)C(N=Nc2c(F)cccc2F)=C(O)C1"
Output: F

Task: Field: outcome | Entry: "Cc1cc(=O)[nH]c(S)c1C#N"
Output: T

Task: Field: outcome | Entry: "C[C@@H]1O[C@@H](OC[C@H]2O[C@@H](Oc3c(-c4cccc(O)c4O)oc4cc(O)cc(O)c4c3=O)[C@H](O)[C@@H](O)[C@@H]2O)[C@H](O)[C@H](O)[C@H]1O"
Output: T

Task: Field: outcome | Entry: c1ccc(C2c3[nH]c4ccccc4c3CCN2Cc2cccn2-c2cccnc2)nc1 (configuration not stated)
Output: T

Task: Field: outcome | Entry: "COc1cccc([C@@H]2Oc3ccc(Br)cc3C(=O)[C@H]2OC(=O)NCc2ccc3c(c2)OCO3)c1"
Output: F

Task: Field: outcome | Entry: "O=C(/C=C/c1ccc(Cl)c([N+](=O)[O-])c1)c1cccnc1"
Output: F

Task: Field: outcome | Entry: "O=c1[nH]c(CSc2ccccc2)nc2c1oc1ccccc12"
Output: F

Task: Field: outcome | Entry: COc1ccc(C2CC(c3ccccc3)=NN2C(=O)CSc2nccc(=O)[nH]2)cc1 (configuration not stated)
Output: F

Task: Field: outcome | Entry: "COc1ccc(N(Cc2ccccc2)S(=O)(=O)c2cccc(C(=O)O)c2)cc1"
Output: F

Task: Field: outcome | Entry: Cc1coc(C)c1C(=O)CC1(O)C(=O)N(C)c2ccc(Cl)cc21 (configuration not stated)
Output: F

Task: Field: outcome | Entry: "O=C(NNC(=S)NC(=O)c1cn(-c2ccccc2)nc1-c1ccccc1)c1ccncc1"
Output: T

Task: Field: outcome | Entry: "O=C(CSc1nc(O)c(Cc2ccccc2)c(=O)[nH]1)Nc1nc2c(s1)CCCC2"
Output: F

Task: Field: outcome | Entry: "CCCc1ccc(C(=O)[C@@H]2[C@@H](C(C)=O)N3c4ccc(F)cc4C=C[C@@H]3[C@@]23C(=O)Nc2ccccc23)cc1"
Output: T

Task: Field: outcome | Entry: "CCOC(=O)c1c(CC(C)C)csc1/N=C/C1=C(O)CCCC1=O"
Output: F

Task: Field: outcome | Entry: CC1OC(OCC2OC(Oc3c(-c4ccc(O)c(O)c4)oc4cc(O)cc(O)c4c3=O)C(O)C(O)C2O)[C@@H](O)C(O)C1O (some centres not stated)
Output: T

Task: Field: outcome | Entry: COc1ccc(C2CC(=O)c3c(O)cc(OC4OC(COC5OC(C)C(O)C(O)C5O)C(O)C(O)C4O)cc3O2)cc1O (configuration not stated)
Output: F

Task: Field: outcome | Entry: CC(C)OCCCNC(=O)c1ccc(C2SCC(=O)N2Cc2ccco2)cc1 (configuration not stated)
Output: F

Task: Field: outcome | Entry: "Cc1ccc(/C=N/NC(=O)CSc2nc3ccccc3o2)cc1"
Output: F

Task: Field: outcome | Entry: O=C(CSc1nnnn1-c1ccc(O)cc1)N1N=C(c2ccc3ccccc3c2)CC1c1ccccc1 (configuration not stated)
Output: T

Task: Field: outcome | Entry: "O=C(Nc1ccc(S(=O)(=O)Nc2nccs2)cc1)c1cccc(S(=O)(=O)N2CCOCC2)c1"
Output: F

Task: Field: outcome | Entry: "COc1ccc2c(c1)O[C@@H](c1ccc3c(c1)OCO3)[C@H](OC(=O)NCCc1ccc(OC)c(OC)c1)C2=O"
Output: F

Task: Field: outcome | Entry: OCCC1CN(Cc2ccc(Oc3ncccn3)cc2)CCN1CCc1ccccc1 (configuration not stated)
Output: F

Task: Field: outcome | Entry: "CCOC(=O)CSc1nc(C)c(Oc2ccc(Cl)cc2Cl)c(=O)[nH]1"
Output: F

Task: Field: outcome | Entry: "CC(=O)c1nnn(-c2ccc(Cl)cc2C#N)c1C"
Output: F

Task: Field: outcome | Entry: "O=S(=O)(Nc1n[nH]c(C(F)(F)F)n1)c1ccccc1"
Output: F
